# measured.target: PARP1 (Homo sapiens)
# Construct: purchased BPS Bioscience, Nordic Biosite 80551
# Sequence (P09874 whole entry): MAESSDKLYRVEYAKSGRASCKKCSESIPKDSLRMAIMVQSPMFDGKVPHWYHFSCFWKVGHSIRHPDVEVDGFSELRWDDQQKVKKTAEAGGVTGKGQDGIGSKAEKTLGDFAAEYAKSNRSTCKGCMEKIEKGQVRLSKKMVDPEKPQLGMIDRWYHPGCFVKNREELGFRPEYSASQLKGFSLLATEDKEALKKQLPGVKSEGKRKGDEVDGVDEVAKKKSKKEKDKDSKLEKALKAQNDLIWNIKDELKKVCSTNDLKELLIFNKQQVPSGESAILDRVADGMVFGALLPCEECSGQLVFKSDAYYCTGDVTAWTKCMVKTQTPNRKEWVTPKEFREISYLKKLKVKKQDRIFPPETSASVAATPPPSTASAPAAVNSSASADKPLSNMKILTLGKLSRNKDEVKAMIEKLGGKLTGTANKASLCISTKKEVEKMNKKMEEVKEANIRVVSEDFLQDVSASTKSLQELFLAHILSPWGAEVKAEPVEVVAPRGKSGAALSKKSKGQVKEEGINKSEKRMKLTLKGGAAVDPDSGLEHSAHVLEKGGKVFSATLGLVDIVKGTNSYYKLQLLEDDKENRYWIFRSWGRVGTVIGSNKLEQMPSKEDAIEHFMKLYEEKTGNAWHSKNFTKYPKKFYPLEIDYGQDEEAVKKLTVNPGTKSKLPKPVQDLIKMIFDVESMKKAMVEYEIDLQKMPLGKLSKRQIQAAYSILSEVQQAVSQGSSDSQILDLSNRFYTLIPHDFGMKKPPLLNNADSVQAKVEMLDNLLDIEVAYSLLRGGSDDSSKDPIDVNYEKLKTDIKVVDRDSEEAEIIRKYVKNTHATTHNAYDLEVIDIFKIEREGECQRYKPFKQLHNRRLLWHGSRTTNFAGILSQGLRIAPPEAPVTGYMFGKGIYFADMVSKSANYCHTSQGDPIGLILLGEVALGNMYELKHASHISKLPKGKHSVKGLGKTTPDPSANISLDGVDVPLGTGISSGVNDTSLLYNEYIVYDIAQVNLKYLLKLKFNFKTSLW
# method.summary: Chemiluminescent Assay Kit, PARP1
# Type: biochemical
# protocol.conditions: in vitro, table; read-out: IC50 value, PARP
pIC50: −log10 of the molar value.
measured.parameter: pIC50

Task: Please give the measured pIC50 for this molecule: CS(=O)(=O)c1ccc(-c2nnc(/C=C/c3nnc(-c4ccc(C#N)cc4)o3)n2-c2ccccc2Cl)nc1 [Compound (10)]
Result: < 4.70

----------
Parameter half-life at 3 μM: see the listing below.
# method.summary: Stability in human liver microsomes
# Type: in vitro ADME
# protocol.conditions: both sexes, pooled human liver microsomes, 0.5 mg/mL protein, 3 μM compound, pH 7.4, 37° C., NADPH, read-out: T ½ human liver microsomes
# Protocol: Pooled human or rat liver microsomes (pooled male and female) were prepared and stored at −80° C. prior to use. […] The final incubation volume was 25 μL. […] Following protein precipitation, the sample supernatants were combined in cassettes of up to 4 compounds and analysed using Cyprotex generic LC-MS/MS conditions. […] From a plot of ln peak area ratio (compound peak area/internal standard peak area) against time, the gradient of the line is determined. […]
The reply should contain only the number, in min.

Task: Please give the measured half-life at 3 μM for this compound: COc1cc(-c2nnc(/C=C/c3nnc(-c4ccc(Cl)cc4Cl)n3-c3ccccc3Cl)o2)ccn1
Result: 162
